Exercise: for every item that follows, state its recorded inhibition at 10 µM.
molecular target: 5-HT2A (Homo sapiens); experiment: GPCR Calcium Flux assay (FLIPR tetra, Eurofins), 5-HT2A; format: cell-based; details: single concentration of 10 uM; read-out: inhibition rate (%) 5-HT2A
Sequence (P28223 whole entry): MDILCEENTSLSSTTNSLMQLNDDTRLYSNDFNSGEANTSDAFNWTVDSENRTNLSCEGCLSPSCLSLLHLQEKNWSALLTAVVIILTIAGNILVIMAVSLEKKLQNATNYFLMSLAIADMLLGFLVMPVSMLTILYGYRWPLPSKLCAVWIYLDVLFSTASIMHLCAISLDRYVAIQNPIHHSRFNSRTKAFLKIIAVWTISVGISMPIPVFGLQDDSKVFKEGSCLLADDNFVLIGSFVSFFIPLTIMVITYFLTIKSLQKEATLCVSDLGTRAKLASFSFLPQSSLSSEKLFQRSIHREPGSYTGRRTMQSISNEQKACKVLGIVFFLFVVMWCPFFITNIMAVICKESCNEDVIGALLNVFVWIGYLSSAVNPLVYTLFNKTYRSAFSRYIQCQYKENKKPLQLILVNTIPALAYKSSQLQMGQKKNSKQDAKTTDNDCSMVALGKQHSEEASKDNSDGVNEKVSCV
Structures can show the parent of a compound that is named as a salt.
Write it as a number; the unit % goes unstated.

// query inhibition at 10 µM value for entry CNCc1cn(S(=O)(=O)c2cccc(Cl)c2)c(-c2c(F)cccc2F)c1OC [Example 14, hydrochloride]
99.9

GET /values?readout=inhibition at 10 µM&item= CNCc1cn(S(=O)(=O)c2cccc(C(F)(F)F)c2)c(-c2cc(F)ccc2F)c1OC [Example 32, hydrochloride]
10.6

# inhibition at 10 µM lookup, item CNCc1cn(S(=O)(=O)c2cccc(F)c2)c(-c2cc(F)ccc2F)c1OC [Example 31, hydrochloride]
101

Sample CNCc1cn(S(=O)(=O)c2cccc(C)c2)c(-c2ccc(F)cc2F)c1OC [Example 10, hydrochloride] — what was its inhibition at 10 µM?
101

###

Target: M2 (Homo sapiens, UniProt P08172)
Sequence (P08172 1-466): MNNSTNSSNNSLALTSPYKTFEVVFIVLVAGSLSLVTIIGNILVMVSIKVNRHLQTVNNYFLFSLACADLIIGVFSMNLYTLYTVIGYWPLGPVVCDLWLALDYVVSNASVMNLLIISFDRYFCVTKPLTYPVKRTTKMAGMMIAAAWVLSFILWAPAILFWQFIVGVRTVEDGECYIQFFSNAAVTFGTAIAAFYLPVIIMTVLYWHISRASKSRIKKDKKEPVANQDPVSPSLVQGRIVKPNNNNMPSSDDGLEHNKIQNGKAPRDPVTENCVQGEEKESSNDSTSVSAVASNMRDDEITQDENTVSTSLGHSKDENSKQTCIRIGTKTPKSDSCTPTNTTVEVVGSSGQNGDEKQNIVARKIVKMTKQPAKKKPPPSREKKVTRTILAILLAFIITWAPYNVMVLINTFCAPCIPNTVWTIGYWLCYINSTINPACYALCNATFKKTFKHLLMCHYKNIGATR
Assay: GPCR Calcium Flux assay (FLIPR tetra, Eurofins), M2
Type: cell-based
Conditions: single concentration of 10 uM; read-out: inhibition rate (%) M2
Structures can show the parent of a compound that is named as a salt.
property-label: inhibition at 10 µM (%)
Use % as the unit, but write only the number.

Could you share which inhibition at 10 µM value was measured for CNCc1cn(S(=O)(=O)c2ccc(F)c(F)c2)c(-c2c(F)cccc2F)c1OC [Example 19, hydrochloride] ?
102

inhibition at 10 µM for CNCc1cn(S(=O)(=O)c2cccc(OC)c2)c(-c2ccc(F)cc2F)c1OC [Example 11, hydrochloride] ?
79.4

Report inhibition at 10 µM for CNCc1cn(S(=O)(=O)c2cccc(F)c2)c(-c2c(F)cccc2F)c1OC [Example 13, hydrochloride] please.
99.4

Which inhibition at 10 µM reading was recorded for the compound CNCc1cn(S(=O)(=O)c2ccc(F)c(Cl)c2)c(-c2c(F)cccc2F)c1OC [Example 18, hydrochloride] ?
42.1

Data request, read-out inhibition at 10 µM, for CNCc1cn(S(=O)(=O)c2cccc(OC)c2)c(-c2ccccc2F)c1OC [Example 3, hydrochloride]
76.9

Look up inhibition at 10 µM for this compound: CNCc1cn(S(=O)(=O)c2cccc(C)c2)c(-c2ccc(F)cc2F)c1OC [Example 10, hydrochloride]
77.6
